Biological target: UniProt:Q12809
Sequence (Q12809 whole entry): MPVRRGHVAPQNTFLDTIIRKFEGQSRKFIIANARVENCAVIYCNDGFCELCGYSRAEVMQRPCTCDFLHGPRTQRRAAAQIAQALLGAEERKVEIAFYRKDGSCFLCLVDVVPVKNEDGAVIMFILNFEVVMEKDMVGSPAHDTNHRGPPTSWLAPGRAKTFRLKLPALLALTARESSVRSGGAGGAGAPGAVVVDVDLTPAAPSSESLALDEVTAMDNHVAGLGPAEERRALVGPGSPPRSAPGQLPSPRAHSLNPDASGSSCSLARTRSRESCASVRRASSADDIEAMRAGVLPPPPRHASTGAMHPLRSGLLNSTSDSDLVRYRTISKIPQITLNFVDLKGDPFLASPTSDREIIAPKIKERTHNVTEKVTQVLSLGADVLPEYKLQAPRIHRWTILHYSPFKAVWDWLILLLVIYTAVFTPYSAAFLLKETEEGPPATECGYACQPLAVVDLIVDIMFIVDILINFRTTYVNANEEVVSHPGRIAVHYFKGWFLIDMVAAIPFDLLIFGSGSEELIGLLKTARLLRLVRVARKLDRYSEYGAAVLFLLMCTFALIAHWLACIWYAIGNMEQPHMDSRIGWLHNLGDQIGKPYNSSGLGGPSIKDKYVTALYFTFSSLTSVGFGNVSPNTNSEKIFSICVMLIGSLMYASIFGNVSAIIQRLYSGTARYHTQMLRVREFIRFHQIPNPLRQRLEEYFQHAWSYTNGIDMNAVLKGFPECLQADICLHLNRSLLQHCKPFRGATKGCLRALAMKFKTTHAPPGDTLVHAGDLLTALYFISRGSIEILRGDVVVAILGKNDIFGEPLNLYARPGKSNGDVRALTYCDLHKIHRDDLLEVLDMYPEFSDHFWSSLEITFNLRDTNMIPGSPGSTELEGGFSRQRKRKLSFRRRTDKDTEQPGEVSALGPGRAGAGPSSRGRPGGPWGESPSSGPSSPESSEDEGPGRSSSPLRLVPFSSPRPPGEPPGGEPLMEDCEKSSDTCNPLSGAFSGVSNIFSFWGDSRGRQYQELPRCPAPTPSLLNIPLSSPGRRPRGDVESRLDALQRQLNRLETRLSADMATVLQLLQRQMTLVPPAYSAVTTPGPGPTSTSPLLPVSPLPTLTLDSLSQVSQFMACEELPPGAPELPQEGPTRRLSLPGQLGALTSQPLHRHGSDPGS
Test: HERGBD: inhibition of specific [3H]-Dofetilide binding to the hERG receptor
Conditions: HEK cell membranes
pIC50: −log10 of the molar value.
pIC50 by entry:
measuredQuantity: pIC50

>>> recordedvalue("Cn1ccc(Cn2cc(-c3cccc(C(F)(F)F)c3)cn2)n1")
4.72
>>> recordedvalue("Cc1cc(Cn2cc(-c3ccc(C(F)(F)F)cc3)cn2)n(C)n1")
3.86
